- Measurement Target: T1, serum purified human Complement Factor D (human, UniProt P00746 26-253)
- T1 construct: Serum purified protein flowed over the captured antibodies; also called CFD; human CFD
- T1 sequence (P00746 26-253): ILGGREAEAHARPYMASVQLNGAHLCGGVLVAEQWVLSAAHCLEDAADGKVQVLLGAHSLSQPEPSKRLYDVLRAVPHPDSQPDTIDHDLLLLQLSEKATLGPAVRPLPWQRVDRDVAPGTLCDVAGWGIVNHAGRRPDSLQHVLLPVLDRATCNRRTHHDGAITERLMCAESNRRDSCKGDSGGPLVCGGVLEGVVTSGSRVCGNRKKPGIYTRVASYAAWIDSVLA
- Assay Summary: SPR Biacore, antibody on protein A chip, single cycle kinetics, 25 C;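 also: antibodies captured to roughly 70 RU on the protein A surface in HBS-EP+ running buffer, with kinetic constants derived by BIAevaluation fitting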
Kindly supply the reported koff values for the records listed here.
One number for each entry, in s⁻¹.

For orientation, consider the following solved cases.
- Binder: "31S48V54V59D / 101V (antibody, V domains shown, KCD119 TAF variant; full antibody captured on protein A) VH: EVQLVESGGGLVQPGGSLRLSCAASGYTFTSYYMNWVRQAPGKGLEWVGDINPVTGDTDYNADFKRRFTFSLDTSKSTAYLQMNSLRAEDTAVYYCTREGPSFAYWGQGTLVTVSS VL: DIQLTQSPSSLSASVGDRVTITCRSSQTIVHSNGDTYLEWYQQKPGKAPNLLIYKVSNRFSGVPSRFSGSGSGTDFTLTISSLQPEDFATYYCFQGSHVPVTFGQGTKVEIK"
  koff, s⁻¹: 0.000101
- Binder: "54V59D / 32D60W101V (antibody, V domains shown, KCD119 TAF variant; full antibody captured on protein A) VH: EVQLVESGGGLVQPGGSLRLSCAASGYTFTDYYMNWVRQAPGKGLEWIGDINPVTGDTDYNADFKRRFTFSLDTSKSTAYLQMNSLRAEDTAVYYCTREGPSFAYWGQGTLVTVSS VL: DIQLTQSPSSLSASVGDRVTITCRSSQTIVHDNGDTYLEWYQQKPGKAPNLLIYKVSNRWSGVPSRFSGSGSGTDFTLTISSLQPEDFATYYCFQGSHVPVTFGQGTKVEIK"
  koff, s⁻¹: 0.000128

Please fill in: koff reported for 34I54I59D / 54R101V (antibody, V domains shown, KCD119 TAF variant) VH: EVQLVESGGGLVQPGGSLRLSCAASGYTFTDYYINWVRQAPGKGLEWIGDINPITGDTDYNADFKRRFTFSLDTSKSTAYLQMNSLRAEDTAVYYCTREGPSFAYWGQGTLVTVSS VL: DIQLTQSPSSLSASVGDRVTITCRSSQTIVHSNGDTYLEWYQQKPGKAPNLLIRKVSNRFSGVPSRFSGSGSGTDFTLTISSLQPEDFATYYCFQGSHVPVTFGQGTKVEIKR = 0.000101
